Target: recombinant SARS-CoV-2 M^pro (Severe acute respiratory syndrome coronavirus 2 (2019-nCoV) (SARS-CoV-2))
Experiment: Inhibition of SARS-CoV-2 M^pro enzyme activity (fluorescent substrate assay)
Format: biochemical
Conditions: inhibition of SARS-CoV-2 M^pro enzyme activity; values in nM; read-out: IC50
For each of the compounds below, state its IC50.
Provide only the numeric value, understood in nM.

Item under review: `Cc1cc(-c2cc(Cl)cc(C#N)c2)nn1CC(=O)N[C@H](Cc1ccccc1)C(=O)C(=O)NCc1nccs1` . Reported IC50?
26.2

Item under review: `C[C@@H](OCc1cc(F)cc(F)c1)C(=O)N[C@H](Cc1ccccc1)C(=O)C(=O)NCc1ccccn1` . Reported IC50?
17.6

Item under review: `C[C@@H](OCc1c(F)cccc1F)C(=O)N[C@H](Cc1ccccc1)C(=O)C(=O)NCc1ccccn1` . Reported IC50?
411

Item under review: `O=C(NCc1ccccn1)C(=O)[C@@H](Cc1ccccc1)NC(=O)[C@@H]1[C@H]2CCC[C@H]2CN1C(=O)c1cnccn1` . Reported IC50?
742

Item under review: `O=C(NCc1ccccn1)C(=O)[C@@H](Cc1ccccc1)NC(=O)C1(NC(=O)[C@@H]2C[C@@H]3[C@H](C2)C3(F)F)CCC1` . Reported IC50?
17.4

Item under review: `O=C(NCc1ccccn1)C(=O)[C@@H](Cc1ccccc1)NC(=O)[C@H]1CCCCN1C(=O)[C@H](NC(=O)c1cnccn1)C1CCCCC1` . Reported IC50?
14.4

====

Target: recombinant SARS-CoV-2 M^pro (Severe acute respiratory syndrome coronavirus 2 (2019-nCoV) (SARS-CoV-2), UniProt P0DTD1)
Assay: Inhibition of SARS-CoV-2 M^pro enzyme activity (fluorescent substrate assay)
Format: biochemical
Details: inhibition of SARS-CoV-2 M^pro enzyme activity; values given in μM; read-out: IC50
quantity-kind: IC50

Item under review: CC(C)(C)[C@H](NC(=O)C(F)(F)F)C(=O)N[C@H](Cc1ccccc1)C(=O)C(=O)NCc1ccccn1 [Compound 245] . Reported IC50?
> 5 µM

Item under review: COC[C@@H](NC(=O)C1CCCC(F)(F)C1)C(=O)N[C@H](Cc1ccccc1)C(=O)C(=O)NCc1ncon1 (stereo partly drawn) [Compound 562] . Reported IC50?
> 2.5 µM

Item under review: C[C@@H](OCc1ccccc1)C(=O)N[C@H](Cc1ccccc1)C(=O)C(=O)N[C@H](C)c1ccccn1 [Compound 31] . Reported IC50?
> 5 µM

====

Target: recombinant SARS-CoV-2 M^pro (Severe acute respiratory syndrome coronavirus 2 (2019-nCoV) (SARS-CoV-2))
Experiment: Inhibition of SARS-CoV-2 M^pro enzyme activity (fluorescent substrate assay)
Format: biochemical
Details: inhibition of SARS-CoV-2 M^pro enzyme activity; values in nM; read-out: IC50
quantity-kind: IC50 (nM)
Provide only the numeric value, understood in nM.

Item under review: `COc1ccc(OC(F)(F)F)cc1C(=O)N[C@H](C)C(=O)N[C@H](Cc1ccccc1)C(=O)C(=O)NCc1nccs1` . Reported IC50?
15.5

Item under review: `C[C@@H](OCc1ccc(OC(F)(F)F)cc1)C(=O)N[C@H](Cc1ccccc1)C(=O)C(=O)NCc1ccccn1` . Reported IC50?
20.4

Item under review: `O=C(CNC(=O)c1ccc(Cl)c(Cl)c1)N[C@H](Cc1ccccc1)C(=O)C(=O)NCc1ccccn1` . Reported IC50?
20.4

Item under review: `O=C(NCc1ccccn1)C(=O)[C@@H](Cc1ccccc1)NC(=O)[C@H]1COCCN1C(=O)CCC1CCC(F)(F)CC1` . Reported IC50?
13.1

Item under review: O=C(CNC(=O)C1CC12CCC(F)(F)CC2)N[C@H](Cc1ccccc1)C(=O)C(=O)NCc1ccccn1 (stereo partly drawn) . Reported IC50?
13.4

Item under review: `O=C(NCc1ccccn1)C(=O)[C@@H](Cc1ccccc1)NC(=O)C1(OCc2ccc(Cl)cc2)CC1` . Reported IC50?
24.9

Item under review: `CC(C)(OCc1ccc(F)cc1)C(=O)N[C@H](Cc1ccccc1)C(=O)C(=O)NCc1ccccn1` . Reported IC50?
18.6

Item under review: `O=C(NCc1ccccn1)C(=O)[C@@H](Cc1ccccc1)NC(=O)C1(NC(=O)C2CCC(F)(F)CC2)CCCC1` . Reported IC50?
32.2

Item under review: `CC[C@@H](OCc1ccc(F)cc1)C(=O)N[C@H](Cc1ccccc1)C(=O)C(=O)NCc1ccc(Cl)cn1` . Reported IC50?
30.9

Item under review: `CC(C)(NC(=O)c1ccc2c(c1)OC(F)(F)O2)C(=O)N[C@H](Cc1ccccc1)C(=O)C(=O)NCc1ccccn1` . Reported IC50?
22.4

Item under review: `O=C(NCc1ccccn1)C(=O)[C@@H](Cc1ccccc1)NC(=O)C1(C(=O)NC2CCC(F)(F)CC2)CC1` . Reported IC50?
37.1

Item under review: `C[C@@H](NC(=O)OCc1ccccc1)C(=O)N[C@H](Cc1ccccc1)C(=O)C(=O)NCc1ccccn1` . Reported IC50?
15.9

Item under review: `O=C(CNC(=O)N1CCC(F)(F)CC1)N[C@H](Cc1ccccc1)C(=O)C(=O)NCc1ccccn1` . Reported IC50?
53.8

Item under review: `CC(C)(NC(=O)[C@@H](NC(=O)c1cnccn1)C1CCCCC1)C(=O)N[C@H](Cc1ccccc1)C(=O)C(=O)NCc1ccccn1` . Reported IC50?
17.5

Item under review: CC(C)C(Oc1ccc(Cl)cc1)C(=O)N[C@H](C)C(=O)N[C@H](Cc1ccccc1)C(=O)C(=O)NCc1ccccn1 (stereo partly drawn) . Reported IC50?
6.7
